- measured_target: Transcriptional activator protein LasR (Pseudomonas aeruginosa (strain ATCC 15692 / PAO1 / 1C / PRS 101 / LMG12228), UniProt P25084)
- Sequence (P25084 whole entry, the tested form may be a part): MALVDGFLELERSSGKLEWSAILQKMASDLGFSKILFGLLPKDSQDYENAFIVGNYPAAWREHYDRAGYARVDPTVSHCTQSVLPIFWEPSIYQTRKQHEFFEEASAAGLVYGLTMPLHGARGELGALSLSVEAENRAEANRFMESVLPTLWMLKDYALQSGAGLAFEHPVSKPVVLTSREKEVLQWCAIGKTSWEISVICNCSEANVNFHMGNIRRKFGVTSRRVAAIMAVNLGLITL
- protocol_text: Agonist activity at Pseudomonas aeruginosa LasR expressed in Escherichia coli JLD271 harboring LasR expression plasmid pJN105L and lasI-lacZ transcriptional fusion reporter pSC11-L measured after 35 mins by Miller-type beta-galactosidase reporter gene assay
recorded_metric: log10 EC50 (log10 of the value in nM)
Log scale reminder: EC50 in nM, then log10 taken.

compound	log10 EC50
CCCCCCCCCC(=O)CC(=O)N[C@H]1CCNC1=O	1.47
CCCCCCCCCC(=O)CC(=O)N[C@H]1CCO[C@@H]1O	3.27

log10 EC50 in this record for CCCCCCCCCC(=O)CC(=O)NCC1CCCO1 (configuration not stated) : 2.41

log10 EC50 in this record for CCCCCCCCCC(=O)CC(=O)N[C@H]1CCOC1 : 2.96

log10 EC50 in this record for CCCCCCCCCC(=O)CC(=O)N[C@H]1CCCC1=O : 1.17

log10 EC50 in this record for CCCCCCCCCC(=O)CC(=O)NC1CCCC1 : 2.21

log10 EC50 in this record for CCCCCCCCCC(=O)CC(=O)N[C@H]1CCSC1=O : 0.18
